Reference source for all entries: patent US8895585B2

Tested on: THP-1 cells
Test: TNFα generation assay
Format: cell-based, human
Settings: Homo sapiens, THP-1, THP-1 cells; Table 22; read-out: IC50 in TNFα generation assay
Experimental: THP-1 cells (2×10^5 cells/ml), which were human monocytoid cells, were cultured in the presence of 10 ng/ml IFN-γ (Roche) for 2 days, so that the cells were induced to differentiate into macrophage-like cells. […] Thereafter, the cultured solution was recovered, and the amount of TNFα secreted into the culture solution was then measured by the ELISA method (Roche/R & D Systems) or the AlphaLISA method (PerkinElmer).
Listed here: items and their measured IC50.
Property: IC50

[
  {
    "Compound": "NC(=O)c1cc(F)c(N[C@@H]2CCCC[C@@H]2N)nc1Nc1ccnc2c1ccn2CCN1CCCC1 [Example 004-023]",
    "Property": "IC50",
    "Value reported": "0.065 to 0.13 µM"
  },
  {
    "Compound": "CCn1ncc2cc(Nc3nc(N[C@H](C4CC4)[C@H](C)N)c(F)cc3C(N)=O)ccc21 [Example 006-471]",
    "Property": "IC50",
    "Value reported": "< 0.065 µM"
  },
  {
    "Compound": "C[C@H](N)[C@@H](CC1CC1)Nc1nc(Nc2ccc3scnc3c2)c(C(N)=O)cc1F [Example 006-348]",
    "Property": "IC50",
    "Value reported": "0.065 to 0.13 µM"
  },
  {
    "Compound": "NC(=O)c1cc(F)c(N[C@@H]2CCCC[C@@H]2N)nc1Nc1cccc(-n2ccnn2)c1 (relative stereo) [Example 006-122]",
    "Property": "IC50",
    "Value reported": "0.065 to 0.13 µM"
  },
  {
    "Compound": "NC(=O)c1cc(F)c(N[C@@H]2CCCC[C@@H]2N)nc1Nc1cncc(N2CCOCC2)c1 (relative stereo) [Example 004-051]",
    "Property": "IC50",
    "Value reported": "0.13 to 0.2 µM"
  },
  {
    "Compound": "CC[C@H](CN)Nc1nc(Nc2ccc3ncccc3c2)c(C(N)=O)cc1F [Example 39-2]",
    "Property": "IC50",
    "Value reported": "< 0.065 µM"
  },
  {
    "Compound": "NC(=O)c1cc(F)c(N[C@@H]2CCCC[C@@H]2N)nc1Nc1cncc2cccnc12 [Example 004-004]",
    "Property": "IC50",
    "Value reported": "0.065 to 0.13 µM"
  },
  {
    "Compound": "COCCn1ncc2ccc(Nc3nc(NC4CCCCC4N)c(F)cc3C(N)=O)cc21 (stereo not drawn) [Example 002-048]",
    "Property": "IC50",
    "Value reported": "0.13 to 0.2 µM"
  },
  {
    "Compound": "NC(=O)c1cc(F)c(N[C@@H]2CCCC[C@@H]2N)nc1Nc1ccnc(Cl)c1 (relative stereo) [Example 006-163]",
    "Property": "IC50",
    "Value reported": "0.065 to 0.13 µM"
  },
  {
    "Compound": "NC(=O)c1cc(F)c(N[C@@H]2CCCC[C@@H]2N)nc1Nc1cnc2c(ccn2CCN2CCCC2)c1 [Example 004-022]",
    "Property": "IC50",
    "Value reported": "0.065 to 0.13 µM"
  },
  {
    "Compound": "CCC[C@@H](Nc1nc(Nc2ccc3cccnc3c2)c(C(N)=O)cc1F)[C@H](C)N [Example 006-244]",
    "Property": "IC50",
    "Value reported": "0.065 to 0.13 µM"
  },
  {
    "Compound": "CCn1ncc2cc(Nc3nc(N[C@H](c4ccc(F)cc4)[C@H](C)N)c(F)cc3C(N)=O)ccc21 [Example 006-555]",
    "Property": "IC50",
    "Value reported": "0.065 to 0.13 µM"
  },
  {
    "Compound": "COc1ncc(Nc2nc(N[C@@H]3CCCC[C@@H]3N)c(F)cc2C(N)=O)cc1F [Example 006-484]",
    "Property": "IC50",
    "Value reported": "0.065 to 0.13 µM"
  },
  {
    "Compound": "Cc1cc(Nc2nc(N[C@H](CCCO)[C@H](C)N)c(F)cc2C(N)=O)cnc1C [Example 044-000]",
    "Property": "IC50",
    "Value reported": "0.065 to 0.13 µM"
  },
  {
    "Compound": "NC(=O)c1cc(F)c(N[C@@H]2CCCC[C@@H]2N)nc1Nc1ccc2cnn(C3CC3)c2c1 [Example 006-473]",
    "Property": "IC50",
    "Value reported": "< 0.065 µM"
  }
]
